Assayed system: MASP-2 CCP2-SP (Homo sapiens (Human))
Sequence (O00187 445-686): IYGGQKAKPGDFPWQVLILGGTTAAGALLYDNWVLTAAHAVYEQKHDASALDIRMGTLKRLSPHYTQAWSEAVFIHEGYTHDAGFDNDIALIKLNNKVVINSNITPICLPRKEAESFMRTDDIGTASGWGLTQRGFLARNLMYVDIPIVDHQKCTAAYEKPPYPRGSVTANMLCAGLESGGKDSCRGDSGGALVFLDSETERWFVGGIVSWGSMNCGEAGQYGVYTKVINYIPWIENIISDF
Sequence (O00187 364-432 partner): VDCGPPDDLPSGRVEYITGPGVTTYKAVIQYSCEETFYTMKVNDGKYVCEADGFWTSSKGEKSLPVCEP
Method: MASP-2 co-crystallization, X-ray crystallography and structure analysis (H-bonds, van der Waals contacts)
Measurement parameters: Table A7-1; between pharmacophore elements of the bound compound
Structures can show the parent of a compound that is named as a salt.
# Pharmacophore torsion angle a(N1, CA1, O1, H4) per record follows
Outcome measure: Pharmacophore torsion angle a(N1, CA1, O1, H4)

{"columns": ["Compound", "Measured result"],
 "data": [
  ["Cc1nc(N)ccc1CNC(=O)[C@H](C)NC(=O)[C@H]1C[C@H](Cc2cccc(Cl)c2)CN1.Cl.Cl [1328_2]", "−4.36"],
  ["Cc1nc(N)ccc1CNC(=O)C(C)NC(=O)C1CC(c2cccc3ccccc23)CCN1.Cl.Cl (stereo not shown) [1297_6]", 5.20],
  ["Cc1nc(N)ccc1CNC(=O)[C@H](C)NC(=O)[C@H]1C[C@H](Cc2ccc(-c3ccccc3)cc2)CN1 [compound 1351]", "−0.13"],
  ["CC(=O)Nc1ccc(CCN[C@H](CCc2ccccc2)C(=O)N[C@@H](C)C(=O)NCc2ccc(N)nc2C)cc1 [compound 1368, Dihydrochloride]", "−2.26"],
  ["Cc1nc(N)ccc1CNC(=O)[C@H](C)NC(=O)[C@H]1C[C@H](Cc2ccccc2Br)CN1.O=C(O)C(F)(F)F.O=C(O)C(F)(F)F [1372_A]", 5.73],
  ["Cc1nc(N)ccc1CNC(=O)[C@H](C)NC(=O)[C@H]1C[C@H](Cc2ccc3ccccc3c2)CN1 [compound 1338]", "−3.32"],
  ["C[C@H](NC(=O)[C@H](N)CCc1ccccc1)C(=O)NCc1ccc(N)nc1.Cl.Cl [1007_2]", 48.80]
]}

====

Readings of a(O1, O2, H4) for the listed compounds
Assayed system: MASP-2 CCP2-SP (Homo sapiens (Human))
Method: MASP-2 co-crystallization, X-ray crystallography and structure analysis (H-bonds, van der Waals contacts)
Measurement parameters: Table A6-1 pharmacophore angle
Counter-ions that a name gives are not always drawn.

{"columns": ["Compound", "a(O1, O2, H4)"],
 "data": [
  ["C[C@H](NC(=O)[C@H](N)CCc1ccccc1)C(=O)NCc1ccc(N)nc1.Cl.Cl [1007_2]", 113.36],
  ["C[C@H](NC(=O)[C@H]1C[C@@H](c2ccccc2)CCN1)C(=O)NCc1cc(Cl)ccc1O.Cl [1078_7]", 86.28],
  ["Cc1nc(N)ccc1CNC(=O)[C@H](C)NC(=O)[C@H]1C[C@H](Cc2cccc(Cl)c2)CN1.Cl.Cl [1328_2]", 136.71],
  ["C[C@H](NC(=O)[C@H]1C[C@@H](c2ccccc2)CCN1)C(=O)NCc1cc(Cl)ccc1O.Cl [1078_9]", 97.24],
  ["CC(=O)Nc1ccc(CCNC(CCc2ccccc2)C(=O)NC(C)C(=O)NCc2ccc(C(=N)N)cc2)cc1.Cl.Cl (centres unmarked) [1345_2]", 138.87],
  ["Cc1nc(N)ccc1CNC(=O)[C@H](C)NC(=O)[C@H]1C[C@@H](c2ccccc2)CCN1C [compound 1441]", 132.47],
  ["CC(NC(=O)C(CCc1ccccc1)NCc1ccc(C(=O)N2CCOCC2)cc1)C(=O)NCc1ccc(C(=N)N)cc1.Cl.Cl (centres unmarked) [1153_A]", 132.39],
  ["C[C@H](NC(=O)[C@H]1C[C@@H](c2ccccc2)CCN1)C(=O)NCc1cc(Cl)ccc1O.Cl [1078_10]", 131.53],
  ["Cc1nc(N)ccc1CNC(=O)[C@H](C)NC(=O)[C@H]1C[C@@H](c2ccccc2)CCN1 [compound 1253, Dihydrochloride]", 131.28],
  ["Cc1nc(N)ccc1CNC(=O)[C@H](C)NC(=O)[C@H]1C[C@H](Cc2ccccc2Br)CN1.O=C(O)C(F)(F)F.O=C(O)C(F)(F)F [1372_B]", 132.88],
  ["C[C@H](NC(=O)[C@H](N)CCc1ccccc1)C(=O)NCc1ccc(C(=N)N)cc1 [compound 1024]", 128.26],
  ["C[C@H](NC(=O)[C@H]1C[C@@H](c2ccccc2)CCN1)C(=O)NCc1cc(Cl)ccc1O.Cl [1078_15]", 110.90],
  ["Cc1nc(N)ccc1CNC(=O)[C@H](C)NC(=O)[C@H]1C[C@H](Cc2cccc(-c3ccccc3)c2)CN1 [compound 1406]", 133.28],
  ["C[C@H](NC(=O)[C@H]1Cc2c([nH]c3ccccc23)CN1)C(=O)NCc1ccc(C(=N)N)cc1.Cl.Cl [1097_2]", 137.06],
  ["C[C@H](NC(=O)[C@H](N)C1Cc2ccccc2C1)C(=O)NCc1ccc2c(N)nccc2c1.Cl.Cl [1088_B]", 153.40],
  ["Cc1nc(N)ccc1CNC(=O)[C@H](C)NC(=O)[C@H]1C[C@@H](c2ccccc2)CCN1CCC(=O)O [compound 1411, Trifluoroacetate salt]", 130.04],
  ["Cc1nc(N)ccc1CNC(=O)[C@H](C)NC(=O)[C@H]1C[C@@H](c2cccc3ccccc23)CCN1.Cl.Cl [1297_5]", 132.64],
  ["C[C@H](NC(=O)[C@H]1C[C@@H](c2ccccc2)CCN1)C(=O)NCc1cc(Cl)ccc1O.Cl [1078_12]", 128.90],
  ["Cc1cccc([C@H]2CN[C@@H](C(=O)N[C@@H](C)C(=O)NCc3ccc(N)nc3C)C2)c1 [compound 1257, Dihydrochloride]", 128.83],
  ["Cc1nc(N)ccc1CNC(=O)[C@H](C)NC(=O)[C@H]1C[C@@H](c2cccc3ccccc23)CCN1.Cl.Cl [1297_4]", 129.06],
  ["C[C@H](NC(=O)[C@H]1C[C@@H](c2ccccc2)CCN1)C(=O)NCc1cc(Cl)ccc1O.Cl [1078_5]", 90.82],
  ["C[C@H](NC(=O)[C@H]1C[C@@H](c2ccccc2)CN1)C(=O)NCc1ccc2c(N)nccc2c1.Cl.Cl [1089_B]", 122.31],
  ["C[C@H](NC(=O)[C@H]1C[C@H](Cc2ccccc2)CN1)C(=O)NCc1cnc2[nH]cc(Cl)c2c1 [compound 1334]", 124.74],
  ["Cc1nc(N)ccc1CNC(=O)C(C)NC(=O)C1CC(c2cccc3ccccc23)CCN1.Cl.Cl (centres unmarked) [1297_3]", 129.38],
  ["Cc1nc(N)ccc1CNC(=O)[C@H](C)NC(=O)[C@H]1C[C@H](Cc2cc(Cl)cc(Cl)c2)CN1 [compound 1435, Dihydrochloride]", 131.96],
  ["Cc1nc(N)ccc1CNC(=O)[C@H](C)NC(=O)[C@H]1C[C@H](Cc2cc(-c3ccccc3)cs2)CN1 [compound 1399, Dihydrochloride]", 132.84],
  ["C[C@H](NC(=O)[C@H](N)CCc1cc(Cl)cc(Cl)c1)C(=O)NCc1ccc(C(=N)N)cc1 [compound 1118]", 139.63],
  ["Cc1nc(N)ccc1CNC(=O)[C@H](C)NC(=O)[C@H]1C[C@H](Cc2cccc(Cl)c2)CN1.Cl.Cl [1328_1]", 133.34],
  ["C[C@H](NC(=O)C1C[C@@H](c2ccccc2)CCN1)C(=O)NCc1ccc(C(=N)N)cc1 (stereo in doubt) [compound 1063]", 142.43]
]}

====

Measured d(N2,CA2) of individual entries
Assayed system: MASP-2 CCP2-SP (Homo sapiens (Human))
Method: MASP-2 co-crystallization, X-ray crystallography and structure analysis (H-bonds, van der Waals contacts)
Measurement parameters: Table A5-2 pharmacophore distance, S3/S4 region
Where a name gives a salt, the structure may show the parent alone.
Outcome measure: d(N2,CA2)

{"columns": ["Compound", "Measured result"],
 "data": [
  ["Cc1nc(N)ccc1CNC(=O)[C@H](C)NC(=O)[C@H]1C[C@@H](c2ccccc2)CCN1C", 5.75],
  ["C[C@H](NC(=O)[C@H]1C[C@H](Cc2ccccc2)CN1)C(=O)NCc1cnc2[nH]cc(Cl)c2c1", 6.09],
  ["C[C@H](NC(=O)[C@H]1C[C@@H](c2ccccc2)CCN1)C(=O)NCc1cc(Cl)ccc1O.Cl [1078_2]", 5.72],
  ["C[C@H](NC(=O)[C@H]1C[C@@H](c2ccccc2)CCN1)C(=O)NCc1cc(Cl)ccc1O.Cl [1078_13]", 5.61],
  ["C[C@H](NC(=O)[C@H]1C[C@H](Cc2ccccc2)CN1)C(=O)NCc1ccc(C(=N)N)cc1.Cl.Cl [1306_1]", 6.06],
  ["C[C@H](NC(=O)[C@H]1C[C@@H](c2ccccc2)CCN1)C(=O)NCc1cc(Cl)ccc1O.Cl [1078_8]", 5.66],
  ["Cc1nc(N)ccc1CNC(=O)[C@H](C)NC(=O)[C@H]1C[C@@H](c2cccc3ccccc23)CCN1.Cl.Cl [1297_5]", 5.69],
  ["Cc1nc(N)ccc1CNC(=O)[C@H](C)NC(=O)[C@H]1C[C@H](Cc2cccc(-c3ccccc3)c2)CN1", 5.98],
  ["C[C@H](NC(=O)[C@H]1C[C@@H](c2ccccc2)CCN1)C(=O)NCc1cc(Cl)ccc1O.Cl [1078_3]", 5.70],
  ["CC(NC(=O)C(CCc1ccccc1)NCc1ccc(C(=O)N2CCOCC2)cc1)C(=O)NCc1ccc(C(=N)N)cc1.Cl.Cl (centres unmarked)", 6.18],
  ["C[C@H](NC(=O)[C@H]1C[C@@H](c2ccccc2)CCN1)C(=O)NCc1cc(Cl)ccc1O.Cl [1078_10]", 5.72],
  ["C[C@H](NC(=O)[C@H](N)CCCc1ccccc1)C(=O)NCc1ccc(C(=N)N)cc1.Cl.Cl [1042_3]", 6.60],
  ["Cc1nc(N)ccc1CNC(=O)[C@H](C)NC(=O)[C@H]1C[C@@H](c2ccccc2)CCN1 [compound 1253, Dihydrochloride]", 5.74],
  ["Cc1nc(N)ccc1CNC(=O)[C@H](C)NC(=O)[C@H]1C[C@H](Cc2ccc(-c3ccccc3)cc2)CN1", 6.12],
  ["C[C@H](NC(=O)[C@H]1C[C@H](Cc2ccccc2)CN1)C(=O)NCc1ccc(C(=N)N)cc1.Cl.Cl [1306_2]", 6.15],
  ["Cc1nc(N)ccc1CNC(=O)[C@H](C)NC(=O)[C@H]1C[C@H](Cc2ccccc2)CN1", 5.96],
  ["Cc1nc(N)ccc1CNC(=O)[C@H](C)NC(=O)[C@H]1C[C@H](Cc2cc(-c3ccccc3)cs2)CN1 [compound 1399, Dihydrochloride]", 5.96],
  ["Cc1nc(N)ccc1CNC(=O)C(C)NC(=O)C1CC(c2cccc3ccccc23)CCN1.Cl.Cl (centres unmarked) [1297_1]", 5.68],
  ["C[C@H](NC(=O)[C@H]1C[C@@H](c2ccccc2)CCN1)C(=O)NCc1cc(Cl)ccc1O.Cl [1078_12]", 5.74],
  ["C[C@H](NC(=O)[C@H]1C[C@@H](c2ccccc2)CCN1)C(=O)NCc1cc(Cl)ccc1O.Cl [1078_7]", 5.74],
  ["C[C@H](NC(=O)[C@H]1C[C@@H](c2ccccc2)CCN1)C(=O)NCc1cc(Cl)ccc1O.Cl [1078_1]", 5.74],
  ["Cc1nc(N)ccc1CNC(=O)[C@H](C)NC(=O)[C@H]1C[C@H](Cc2cc(Cl)cc(Cl)c2)CN1 [compound 1435, Dihydrochloride]", 6.00],
  ["C[C@H](NC(=O)[C@H]1C[C@@H](c2ccccc2)CCN1)C(=O)NCc1cc(Cl)ccc1O.Cl [1078_15]", 5.66],
  ["Cc1nc(N)ccc1CNC(=O)[C@H](C)NC(=O)[C@H]1C[C@H](Cc2cccc(Cl)c2)CN1.Cl.Cl [1328_1]", 5.88],
  ["C[C@H](NC(=O)[C@H]1C[C@H](Cc2ccccc2)CN1)C(=O)NCc1cc(Cl)ccc1-n1cnnn1 [compound 1371, Hydrochloride]", 5.90],
  ["Cc1nc(N)ccc1CNC(=O)C(C)NC(=O)C1CC(c2cccc3ccccc23)CCN1.Cl.Cl (centres unmarked) [1297_6]", 5.72],
  ["Cc1nc(N)ccc1CNC(=O)[C@H](C)NC(=O)[C@H]1C[C@H](Cc2cccc(Cl)c2)CN1.Cl.Cl [1328_3]", 6.00],
  ["C[C@H](NC(=O)[C@H](N)CCc1ccccc1)C(=O)NCc1ccc(N)nc1.Cl.Cl [1007_2]", 6.11],
  ["C[C@H](NC(=O)[C@@H](CCc1ccccc1)NCc1ccc(C(=O)N2CCOCC2)cc1)C(=O)NCc1ccc(C(=N)N)cc1.Cl.Cl", 5.06]
]}

These entries and their values trace back to patent US12195427B2.
